# assay.target: UniProt:Q96KS0
# Sequence (Q96KS0 whole entry): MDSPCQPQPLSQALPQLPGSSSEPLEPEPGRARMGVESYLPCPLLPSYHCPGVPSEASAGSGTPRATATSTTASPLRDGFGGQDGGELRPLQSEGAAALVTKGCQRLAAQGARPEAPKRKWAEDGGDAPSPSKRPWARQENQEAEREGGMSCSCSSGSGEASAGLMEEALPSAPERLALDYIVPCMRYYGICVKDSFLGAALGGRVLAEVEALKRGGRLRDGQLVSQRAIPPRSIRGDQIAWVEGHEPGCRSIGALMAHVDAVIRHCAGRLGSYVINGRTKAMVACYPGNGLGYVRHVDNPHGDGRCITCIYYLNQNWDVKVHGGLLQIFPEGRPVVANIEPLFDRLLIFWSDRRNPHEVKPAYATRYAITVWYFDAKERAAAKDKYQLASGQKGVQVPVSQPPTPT
# protocol.notes: MALDI-TOF MS PHD hydroxylation assay
# Assay type: biochemical
assay.metric: IC50 (nM)

{"columns": ["compound", "assay.metric", "quantitative.readout"],
 "data": [
  ["O=C(O)CNC(=O)C1C(=O)N(C2CCCCC2)C(=O)N(C2CCCCC2)C1=O [GSK1278863]", "IC50", 1500]
]}

###

# assay.target: Ofd1 (Schizosaccharomyces pombe, UniProt Q11120)
# Construct: His6 (N); made in house; host or cells: E. coli BL21(DE3)
# Sequence (Q11120 whole entry): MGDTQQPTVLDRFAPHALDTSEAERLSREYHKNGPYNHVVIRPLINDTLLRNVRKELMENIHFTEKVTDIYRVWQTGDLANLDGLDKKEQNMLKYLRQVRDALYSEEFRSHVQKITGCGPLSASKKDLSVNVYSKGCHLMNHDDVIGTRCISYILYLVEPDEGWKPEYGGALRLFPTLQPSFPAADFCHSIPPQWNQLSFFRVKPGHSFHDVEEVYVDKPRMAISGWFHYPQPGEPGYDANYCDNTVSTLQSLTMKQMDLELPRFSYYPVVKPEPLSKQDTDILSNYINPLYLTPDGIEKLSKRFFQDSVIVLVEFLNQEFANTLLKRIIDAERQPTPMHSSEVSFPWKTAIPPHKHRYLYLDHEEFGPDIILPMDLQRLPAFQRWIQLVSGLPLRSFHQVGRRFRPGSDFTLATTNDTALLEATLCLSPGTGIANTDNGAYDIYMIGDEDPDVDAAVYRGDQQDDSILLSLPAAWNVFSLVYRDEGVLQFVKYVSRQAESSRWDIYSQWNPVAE
# protocol.notes: MALDI-TOF MS Ofd1 hydroxylation assay
# Format: biochemical
# measurement.setup: isolated recombinant enzyme, 1 μM; read-out: IC50 Ofd1
# Lookup of reported IC50 keyed by entry
assay.metric: IC50 (µM)

{"columns": ["molecule", "quantitative.readout"],
 "data": [
  ["Cc1nc(C(=O)NCC(=O)O)c(O)c2ccc(Oc3ccccc3)cc12 [FG-4592]", 8.5],
  ["O=c1c(-n2ccnn2)c[nH]n1-c1cc(N2CCOCC2)ncn1 [Molidustat]", 10.3]
]}
